Target: Muscarinic acetylcholine receptor M2 (Homo sapiens, UniProt P08172); also: assay procedure not described here
Sequence (P08172 whole entry): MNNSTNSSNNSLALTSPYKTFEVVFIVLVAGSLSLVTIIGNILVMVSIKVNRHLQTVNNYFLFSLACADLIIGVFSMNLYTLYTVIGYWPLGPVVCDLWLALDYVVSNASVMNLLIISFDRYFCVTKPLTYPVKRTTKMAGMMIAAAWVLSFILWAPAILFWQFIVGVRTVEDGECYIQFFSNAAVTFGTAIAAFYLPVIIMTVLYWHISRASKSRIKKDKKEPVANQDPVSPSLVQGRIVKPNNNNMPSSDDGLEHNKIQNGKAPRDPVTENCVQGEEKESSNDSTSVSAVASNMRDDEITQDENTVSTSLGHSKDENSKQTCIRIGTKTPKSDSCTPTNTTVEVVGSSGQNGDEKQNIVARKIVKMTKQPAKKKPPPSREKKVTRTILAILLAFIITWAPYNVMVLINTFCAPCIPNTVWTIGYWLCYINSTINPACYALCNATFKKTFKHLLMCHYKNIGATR
Type: functional, cell-based
PROPERTY: AC50

Lab note: Muscarinic acetylcholine receptor M2 (Homo sapiens, UniProt P08172) assay, enter AC50 for CC(=O)OCC(=O)[C@@]1(O)CC[C@H]2[C@@H]3CCC4=CC(=O)CC[C@]4(C)C3=CC[C@@]21C [ANECORTAVE ACETATE] here > 10 µM

Lab note: Muscarinic acetylcholine receptor M2 (Homo sapiens, UniProt P08172) assay, enter AC50 for CC[C@H]1OC(=O)[C@H](C)[C@@H](O[C@H]2C[C@@](C)(OC)[C@@H](O)[C@H](C)O2)[C@H](C)[C@@H](O[C@@H]2O[C@H](C)C[C@H](N(C)C)[C@H]2O)[C@](C)(O)C[C@@H](C)/C(=N\OCOCCOC)[C@H](C)[C@@H](O)[C@]1(C)O [ROXITHROMYCIN] here > 30 µM

Lab note: Muscarinic acetylcholine receptor M2 (Homo sapiens, UniProt P08172) assay, enter AC50 for O=C(Nc1c(Cl)cncc1Cl)c1ccc(OC(F)F)c(OCC2CC2)c1 [ROFLUMILAST] here > 30 µM

Lab note: Muscarinic acetylcholine receptor M2 (Homo sapiens, UniProt P08172) assay, enter AC50 for CNCCCC1c2ccccc2C=Cc2ccccc21 [PROTRIPTYLINE] here > 10 µM

Lab note: Muscarinic acetylcholine receptor M2 (Homo sapiens, UniProt P08172) assay, enter AC50 for CC1(C)O[C@@H]2C[C@H]3[C@@H]4C[C@H](F)C5=CC(=O)C=C[C@]5(C)[C@H]4[C@@H](O)C[C@]3(C)[C@]2(C(=O)CO)O1 [FLUNISOLIDE] here > 30 µM

Lab note: Muscarinic acetylcholine receptor M2 (Homo sapiens, UniProt P08172) assay, enter AC50 for CC(C)(C)NCC(O)c1cc(Cl)c(N)c(Cl)c1 (stereo unspecified) [CLENBUTEROL] here > 30 µM

Lab note: Muscarinic acetylcholine receptor M2 (Homo sapiens, UniProt P08172) assay, enter AC50 for Clc1cccc(Cl)c1N=C1NCCN1 [CLONIDINE] here > 10 µM

Lab note: Muscarinic acetylcholine receptor M2 (Homo sapiens, UniProt P08172) assay, enter AC50 for C=CC1=C(C(=O)O)N2C(=O)[C@@H](NC(=O)/C(=N\OCC(=O)O)c3csc(N)n3)[C@H]2SC1 [CEFIXIME] here > 30 µM

Lab note: Muscarinic acetylcholine receptor M2 (Homo sapiens, UniProt P08172) assay, enter AC50 for CC1(C)O[C@@H]2[C@@H](CO[C@@]3(COS(N)(=O)=O)OC(C)(C)O[C@@H]23)O1 [TOPIRAMATE] here > 10 µM

Lab note: Muscarinic acetylcholine receptor M2 (Homo sapiens, UniProt P08172) assay, enter AC50 for CNC(=O)Oc1ccc2c(c1)[C@]1(C)CCN(C)[C@@H]1N2C [PHYSOSTIGMINE] here > 30 µM

Lab note: Muscarinic acetylcholine receptor M2 (Homo sapiens, UniProt P08172) assay, enter AC50 for CN1c2ccccc2C(NCCCCCCC(=O)O)c2ccc(Cl)cc2S1(=O)=O (stereo unspecified) [TIANEPTINE] here > 30 µM

Lab note: Muscarinic acetylcholine receptor M2 (Homo sapiens, UniProt P08172) assay, enter AC50 for CN1CCN(CCCN2c3ccccc3Sc3ccc(S(=O)(=O)N(C)C)cc32)CC1 [THIOPROPERAZINE] here > 30 µM

Lab note: Muscarinic acetylcholine receptor M2 (Homo sapiens, UniProt P08172) assay, enter AC50 for CO[C@@]1(NC(=O)Cc2cccs2)C(=O)N2C(C(=O)O)=C(COC(N)=O)CS[C@@H]21 [CEFOXITIN] here > 30 µM

Lab note: Muscarinic acetylcholine receptor M2 (Homo sapiens, UniProt P08172) assay, enter AC50 for CC(=O)/N=c1/sc(S(N)(=O)=O)nn1C [METHAZOLAMIDE] here > 10 µM

Lab note: Muscarinic acetylcholine receptor M2 (Homo sapiens, UniProt P08172) assay, enter AC50 for CCOC(=O)Nc1ccc2c(c1)N(C(=O)CCN1CCOCC1)c1ccccc1S2 [MORICIZINE] here > 30 µM

Lab note: Muscarinic acetylcholine receptor M2 (Homo sapiens, UniProt P08172) assay, enter AC50 for CCn1cc(C(=O)O)c(=O)c2cc(F)c(N3CCN(C)CC3)cc21 [PEFLOXACIN] here > 30 µM
